B1: library; numbered along this chain (parent)
chain: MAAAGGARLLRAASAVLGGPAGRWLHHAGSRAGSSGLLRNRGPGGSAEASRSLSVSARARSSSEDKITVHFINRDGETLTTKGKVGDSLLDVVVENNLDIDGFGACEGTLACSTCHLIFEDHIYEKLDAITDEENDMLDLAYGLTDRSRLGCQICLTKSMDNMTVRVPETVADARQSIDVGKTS

Variants of: B1
PROTOCOL: scaled log2 fold change in cell abundance, elesclomol vs control (0 = silent mean, 1 = nonsense mean) (scaled log2 ratio); higher = higher viability under elesclomol (loss of FDX1 cuproptosis function);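 also: variant abundance is its share of total variant reads in each endpoint sample, from next-generation sequencing of the integrated ORF PCR-amplified out of genomic DNA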
TEST SETTINGS: with HEK293T FDX1 KO; elesclomol 40 nM; glucose 10 mM; 11 days
scaled log2 fold change below -0.02 gives label 0; scaled log2 fold change at or above it gives label 1.

[[record]]
variant_id = "G33E"
classification = "label 0"

[[record]]
variant_id = "S52M"
classification = "label 0"

[[record]]
variant_id = "I118H"
classification = "label 1"

[[record]]
variant_id = "V92D"
classification = "label 1"

[[record]]
variant_id = "C155G"
classification = "label 0"

[[record]]
variant_id = "A49F"
classification = "label 1"

[[record]]
variant_id = "S46G"
classification = "label 1"

[[record]]
variant_id = "D101Q"
classification = "label 0"


Please look at the following variant next.
Input line: Assess whether reported scaled log2 fold change for G181I sits at -0.02 or higher.
Output line: label 1

Reference source: the supplement of paper PMC12855868
